For each of the molecules below, state its IC50.
Experiment: Cytotoxicity in Vero cells
Assay type: cell-based, African green monkey
Conditions: African green monkey, Vero cells (kidney epithelial cells)

query: Return the recorded IC50 value; entry: `COc1nc(N)c2ncn([C@H]3C[C@H](N=[N+]=[N-])[C@@H](CO)O3)c2n1`
result: > 100 µM

query: Please look at this molecule and report its IC50: `[N-]=[N+]=N[C@H]1C[C@H](n2cnc3c(NC4CC4)nc(Cl)nc32)O[C@@H]1CO`
result: > 100 µM

query: Determine from records and report IC50 for `CC(C)(CO)Nc1nc(N)nc2c1ncn2[C@H]1C[C@H](N=[N+]=[N-])[C@@H](CO)O1`
result: > 100 µM

query: Please indicate IC50 recorded for `[N-]=[N+]=N[C@H]1C[C@H](n2cnc3c(NCCO)nc(N)nc32)O[C@@H]1CO`
result: > 100 µM

query: Give IC50 for `COc1nc(Cl)nc2c1ncn2[C@H]1C[C@H](N=[N+]=[N-])[C@@H](CO)O1`
result: > 100 µM

query: Quote IC50 reported for `COc1nc(OC)c2ncn([C@H]3C[C@H](N=[N+]=[N-])[C@@H](CO)O3)c2n1` please.
result: > 100 µM

query: Tell me measured IC50 for `[N-]=[N+]=N[C@H]1C[C@H](n2cnc3c(N)nc(Cl)nc32)O[C@@H]1CO` please.
result: > 100 µM

query: Retrieve IC50 measured for `COc1nc(F)nc2c1ncn2[C@H]1C[C@H](N=[N+]=[N-])[C@@H](CO)O1` and print it.
result: > 100 µM

====

Tested on: PBM cells
Experiment: Cytotoxicity in PBM cells
Format: cell-based
Conditions: human
Measurement label: IC50

query: Please list IC50 recorded for the molecule `Cc1cn([C@H]2C[C@H](N=[N+]=[N-])[C@@H](CO)O2)c(=O)[nH]c1=O`
result: > 100 µM
